- Tested on: SEM cells
- method-notes: cell viability relative to DMSO control; higher = less cytotoxic
- test-conditions: RPMI 5 mM glucose + 10% dialyzed FBS; 48 h; 5.12 µM
Simple rule here: cell viability less than 80% is MET, otherwise NOT MET.

C[C@@H](NC(=O)c1ncnc(N)c1Cl)c1ncc(C(=O)Nc2cc(C(F)(F)F)c(Cl)cn2)s1 : NOT MET
CC(O)(C#Cc1ccc2c(c1)N(c1nc(N)ncc1Cl)CC2)c1nccs1 (centres undefined) : NOT MET
Nc1nnc(-c2cccc(Cl)c2Cl)c(N)n1 : NOT MET
COC[C@H](c1ccc(C(F)(F)F)cc1)N1CCN(C2(C)CCN(C(=O)c3c(C)ncnc3C)CC2)C[C@H]1C.O=C(O)/C=C\C(=O)O : NOT MET
CC1(N2CCC(n3c([C@@H]4CCCNC4)nc4ccccc43)CC2)CCCCCCC1 : NOT MET
CCN(CC)CCCCNc1ncc2c(n1)N(C)C(=O)N(c1c(Cl)c(OC)cc(OC)c1Cl)C2 : NOT MET
COC(=O)C1C2CC3c4[nH]c5cc(OC)ccc5c4CCN3CC2CC(OC(=O)c2cc(OC)c(OC)c(OC)c2)C1OC (centres undefined) : NOT MET
COC1=C2C[C@@H](C)C[C@H](OC)[C@H](O)[C@@H](C)/C=C(\C)[C@H](OC(N)=O)[C@@H](OC)/C=C/C=C(\C)C(=O)NC(=CC1=O)C2=O : MET
CC[C@H](C)C(=O)O[C@H]1C[C@H](O)\C=C2\C=C/[C@H](C)[C@H](CC[C@@H](O)C[C@@H](O)CC(O)=O)[C@@H]12 : NOT MET
CCC(=O)N[C@H]1CC[C@H](C(=O)N(C)c2ccc(-c3nc4ccccc4o3)cc2)C1 : NOT MET

[in] Threshold test, cell viability < 80%: CNC[C@H](O)c1cccc(O)c1
[out] NOT MET

[in] For C[C@H]1[C@@H](C(=O)C[C@H]2O[C@@H]3O[C@]4(C)CC[C@H]5[C@H](C)CC[C@@H]([C@H]2C)[C@@]35OO4)O[C@@H]2O[C@]3(C)CC[C@H]4[C@H](C)CC[C@@H]1[C@@]24OO3 then?
[out] NOT MET

[in] Then this compound: CO/C1=C/C(C)=C\[C@@H](C)[C@@H](O)[C@@H](C)C/C(C)=C\C=C/[C@H](OC)[C@@H]([C@@H](C)[C@@H](O)[C@H](C)[C@@]2(O)C[C@@H](O)[C@H](C)[C@@H](C(C)C)O2)OC1=O
[out] MET

[in] Now the same for O=C(Nc1ncc(-c2cc(C(F)F)nn2-c2c(Cl)cccc2Cl)s1)C1CC1
[out] MET

[in] Do the same for Cn1c(=O)n(-c2ccc(C(C)(C)C#N)cc2)c2c3cc(-c4cnc5ccccc5c4)ccc3ncc21 please
[out] MET

###

- Tested on: P12-Ichikawa
- method-notes: cell viability relative to DMSO control; higher = less cytotoxic
- test-conditions: RPMI 5 mM glucose + 10% FBS; 48 h; 0.00234 µM
Examples of molecules with documented cell viability follow.
Please respond with the number in % and leave the unit unwritten.

COCCOc1nc(-c2ccc(Cl)c(Cl)c2)n(-c2ccc(NC(=O)CCl)cc2)n1 : 101
Cn1c(=O)n(-c2ccc(C(C)(C)C#N)cc2)c2c3cc(-c4cnc5ccccc5c4)ccc3ncc21 : 108
COc1ccc([C@@H]2CC(=O)c3c(O)cc(O[C@@H]4O[C@H](CO[C@@H]5O[C@@H](C)[C@H](O)[C@@H](O)[C@H]5O)[C@@H](O)[C@H](O)[C@H]4O)cc3O2)cc1O : 101
C[C@H]1[C@@H](C(=O)C[C@H]2O[C@@H]3O[C@]4(C)CC[C@H]5[C@H](C)CC[C@@H]([C@H]2C)[C@@]35OO4)O[C@@H]2O[C@]3(C)CC[C@H]4[C@H](C)CC[C@@H]1[C@@]24OO3 : 130
Cc1cnc(C(=O)O)c[n+]1[O-] : 128

Now for a further molecule.
[in] Record lookup: for P12-Ichikawa, what cell viability belongs to CCOC(=O)c1cncn1[C@H](C)c1ccccc1 ?
[out] 129

###

cell viability: recorded values
- Test system: NOMO1
- method-notes: cell viability relative to DMSO control; higher = less cytotoxic
- test-conditions: RPMI 5 mM glucose + 10% FBS; 48 h; 5.12 µM
Just the number in %, nothing appended.

CC(C)c1cc(C(=O)N2Cc3ccc(CN4CCN(C)CC4)cc3C2)c(O)cc1O : 15.9
CC1(C)CNc2cc(NC(=O)c3cccnc3NCc3ccncc3)ccc21 : 103
CC(/C=C/C(=O)NO)=C\[C@@H](C)C(=O)c1ccc(N(C)C)cc1 : 5.72
NC(=O)c1cccc2nc(-c3ccc([C@H]4CCCN4)cc3F)[nH]c12 : 101
O=C(O)CCn1c2c(c3ccccc31)C[C@H](N[S+](=O)([O-])c1ccc(F)cc1)CC2 : 94.2
Nc1nc(N)c2nc(-c3cccc(O)c3)c(-c3cccc(O)c3)nc2n1 : 91.6
C[S+](=O)([O-])c1ccc(-c2cnc(N)c(C(=O)Nc3ccccc3)n2)cc1 : 110
CC(C)c1cnn2c(NCc3ccccc3)cc(NCCCCCCN)nc12 : 116

[in] # get_value(readout='cell viability', item= COc1cccc([C@@H](C)NCCCc2ccccc2Cl)c1 )
[out] 94.8

[in] Next up: Cc1csc(NC(=O)c2sc3nc4c(c(C(F)(F)F)c3c2N)CCC4)n1
[out] 87.2

[in] Now give it for O=C(Nc1ncc(SCCN2CCCC2)s1)[C@]1(c2ccc([S+](=O)([O-])C3CC3)cc2)C[C@H]1C1CCCCC1 too.
[out] 108

[in] Next record, please: COc1ccc2[nH]c([S+]([O-])Cc3ncc(C)c(OC)c3C)nc2c1 (centres undefined)
[out] 96.3

###

- Tested on: NOMO1
- method-notes: AUC of viability dose-response curve (% viability x log10 dose units); higher = less sensitive
- test-conditions: RPMI 5 mM glucose + 10% dialyzed FBS; 48 h
Overview of recorded AUC of viability dose-response curve for various compounds
Form rule: numeric answer, no unit written next to it.

Example entries begin here.
CC(C)(C)c1cnc(CSc2cnc(NC(=O)C3CCNCC3)s2)o1 : 312
CCOC(=O)c1cncn1[C@H](C)c1ccccc1 : 442
Oc1cccc(-c2nc(N3CCOCC3)c3oc4ncccc4c3n2)c1 : 459
O=C(Nc1ncc(SCCN2CCCC2)s1)[C@]1(c2ccc([S+](=O)([O-])C3CC3)cc2)C[C@H]1C1CCCCC1 : 446
O=C(Nc1ncc(-c2cc(C(F)F)nn2-c2c(Cl)cccc2Cl)s1)C1CC1 : 370
CC(C)(O)Cn1c(NC(=O)c2ccc(-c3cn[nH]c3)s2)nc2cc(CN3CCOCC3)ccc21 : 368

[in] Report AUC of viability dose-response curve for NC(=O)C1CCCc2c1[nH]c1ccc(Cl)cc21 (centres undefined) please.
[out] 404

[in] Now try COc1ccc2c(c1)c(CC(=O)OCC(=O)O)c(C)n2C(=O)c1ccc(Cl)cc1 .
[out] 463

[in] Another compound to check: CC(/C=C1\SC(=S)N(CC(=O)O)C1=O)=C\c1ccccc1
[out] 472

###

- Tested on: P12-Ichikawa
- method-notes: cell viability relative to DMSO control; higher = less cytotoxic
- test-conditions: RPMI 5 mM glucose + 10% dialyzed FBS; 48 h; 0.0632 µM
measure-name: cell viability (%)
The response must be a number in % with no trailing unit.

Worked examples, 8 compounds total:
COC[C@H](c1ccc(C(F)(F)F)cc1)N1CCN(C2(C)CCN(C(=O)c3c(C)ncnc3C)CC2)C[C@H]1C.O=C(O)/C=C\C(=O)O : 103
C[C@]12CC[C@@H]3c4ccc(O)cc4CC[C@H]3[C@@H]1C[C@@H](O)[C@@H]2O : 115
O=C(c1ccc(F)c(F)c1Nc1ccc(I)cc1F)N1CC(O)([C@@H]2CCCCN2)C1 : 111
O=C(Oc1ccc([N+](=O)[O-])cc1)N1CCC(C(O)(c2ccc3c(c2)OCO3)c2ccc3c(c2)OCO3)CC1 : 90.2
C=CCc1cccc(/C=N/NC(=O)CN2CCN(Cc3ccccc3)CC2)c1O : 109
COc1cccc([C@@H](C)NCCCc2ccccc2Cl)c1 : 91.3
O=C(O)CCn1c2c(c3ccccc31)C[C@H](N[S+](=O)([O-])c1ccc(F)cc1)CC2 : 115
O=C(O)/C=C/c1ccc(O)c(O)c1 : 117

// next entry
[in] What is its cell viability for P12-Ichikawa? Entry: ClC1=CC\2=C(OC3=C(C=CC=C3)\N=C2N4CCNCC4)C=C1
[out] 99.3

###

- System: P12-Ichikawa
- method-notes: cell viability relative to DMSO control; higher = less cytotoxic
- test-conditions: HPLM + 10% dialyzed FBS; 48 h; 0.569 µM
measure-name: cell viability
The answer consists of two parts: a number and, after it, its unit.

Consider the following illustrative entries.
CN1\N=C(N)/C2=C[N]([C@@H]3O[C@H](CO[P](O)(O)=O)[C@@H](O)[C@H]3O)C4=C2C1=NC=N4 : 77.9%
O=C\1N(N\C=C1[N]2C=CN=N2)C3=NC=NC(=C3)N4CCOCC4 : 18.6%
COCCOc1nc(-c2ccc(Cl)c(Cl)c2)n(-c2ccc(NC(=O)CCl)cc2)n1 : 99.1%

[in] Tell me the measured cell viability of CN[C@@H]1Cc2cccc3[nH]c(=O)n(c23)C1 , please.
[out] 108%

[in] Same read-out for COc1ncnc(N[S+](=O)([O-])c2ccc(N)cc2)c1OC ?
[out] 79.8%

[in] And then O=C(c1ccc(F)c(F)c1Nc1ccc(I)cc1F)N1CC(O)([C@@H]2CCCCN2)C1 , what is it?
[out] 100%

[in] Can you handle CN1CCC[C@@H]1CCO[C@](C)(c1ccccc1)c1ccc(Cl)cc1 next?
[out] 104%

[in] One more compound: CCCCC(C=O)NC(=O)C(CC(C)C)NC(=O)OCc1ccccc1 (centres undefined)
[out] 91.1%

[in] Note, next up: Cc1cc(C(=O)N2CCN(c3cccc(Cl)c3)CC2)n(-c2ccccc2)n1
[out] 105%
